tested on: late blight on tomato; type: in vivo, Plasmopara viticola; conditions: tomato (Hofuku), therapeutic effect, sprayed after inoculation, active ingredient 100 ppm, disease severity 7 days after inoculation
METRIC NAME: Control value (%)
Express your answer in %, writing the number without its unit.

Take a look at these entries with their results.
[
  {
    "COMPOUND": "CCCCOC(=O)Nc1cccc(CON=C(c2ccccc2)c2nnnn2C)n1 [(3)-5]",
    "Control value (%)": 100
  },
  {
    "COMPOUND": "CCCCOC(=O)Nc1cccc(CON=C(c2ccccc2)n2nnnc2C)n1 [(13)-5]",
    "Control value (%)": 90
  },
  {
    "COMPOUND": "CCCC(=O)Nc1cccc(CON=C(c2ccc(Cl)cc2)c2nnnn2C)n1 [(7)-1]",
    "Control value (%)": 80
  },
  {
    "COMPOUND": "CC(C)C(=O)Nc1nc(CON=C(c2ccccc2)c2nnnn2C)cs1 [(2)-7]",
    "Control value (%)": 100
  },
  {
    "COMPOUND": "Cn1nnnc1C(=NOCc1cccc(NC(=O)C2CC2)n1)c1ccccc1 [(1)-21]",
    "Control value (%)": 90
  },
  {
    "COMPOUND": "CC(C)OC(=O)Nc1cccc(CON=C(c2ccccc2)c2nnnn2C)n1 [(3)-4]",
    "Control value (%)": 100
  },
  {
    "COMPOUND": "CSCCC(=O)Nc1nc(CON=C(c2ccccc2)c2nnnn2C)cs1 [(6)-6]",
    "Control value (%)": 80
  },
  {
    "COMPOUND": "CCCOC(=O)Nc1cccc(CON=C(c2cccc(F)c2)c2nnnn2C)n1 [(9)-6]",
    "Control value (%)": 100
  },
  {
    "COMPOUND": "CCCCC(=O)Nc1cccc(CON=C(c2ccccc2)c2nnnn2C)n1 [(1)-8]",
    "Control value (%)": 90
  },
  {
    "COMPOUND": "Cc1ccc(C(=NOCc2cccc(NC(=O)OC(C)(C)C)n2)c2nnnn2C)cc1 [(9)-4]",
    "Control value (%)": 100
  }
]

Fill blank: measured Control value (%) of the compound Cn1nnnc1C(=NOCc1cccc(NC(=O)OC(C)(C)C)n1)c1ccccc1 [(3)-8] is ____.
100

Fill blank: measured Control value (%) of the compound CCCCOC(=O)Nc1cccc(CON=C(c2ccc(C(F)(F)F)cc2)n2nnnc2C)n1 [(19)-31] is ____.
100

Fill blank: measured Control value (%) of the compound CCCCCC(=O)Nc1cccc(CON=C(c2cccc(C)c2)c2nnnn2C)n1 [(9)-7] is ____.
100

Fill blank: measured Control value (%) of the compound CCCC(=O)Nc1cccc(CON=C(c2ccccc2)n2nnnc2C)n1 [(11)-6] is ____.
80

Fill blank: measured Control value (%) of the compound CCCCCCC(=O)Nc1nc(CON=C(c2ccccc2)n2nnnc2C)cs1 [(12)-18] is ____.
100

###

system: late blight on tomato; format: in vivo, Plasmopara viticola; conditions: tomato (Hofuku), therapeutic effect, sprayed after inoculation, active ingredient 100 ppm, disease severity 7 days after inoculation
Items are presented alongside their recorded Control value (%).
Express your answer in %, writing the number without its unit.

Take a look at these entries with their results.
[
  {
    "COMPOUND": "CCC(=O)Nc1cccc(CON=C(c2ccccc2)n2nnnc2C)n1 [(11)-5]",
    "Control value (%)": 80
  },
  {
    "COMPOUND": "CCCCCOC(=O)Nc1cccc(CON=C(c2ccccc2)c2nnnn2C)n1 [(3)-9]",
    "Control value (%)": 100
  },
  {
    "COMPOUND": "CCCCCCOC(=O)Nc1cccc(CON=C(c2ccccc2)n2nnnc2C)n1 [(13)-15]",
    "Control value (%)": 90
  }
]

Fill blank: measured Control value (%) of the compound CCCCCCCOC(=O)Nc1cccc(CON=C(c2ccccc2)c2nnnn2C)n1 [(3)-16] is ____.
100

Fill blank: measured Control value (%) of the compound Cn1nnnc1C(=NOCc1csc(NC(=O)C(C)(C)C)n1)c1ccccc1 [(2)-11] is ____.
100
